Examples of variants with documented sfGFP reporter fluorescence follow.
B1: library; numbered along this chain (parent)
chain: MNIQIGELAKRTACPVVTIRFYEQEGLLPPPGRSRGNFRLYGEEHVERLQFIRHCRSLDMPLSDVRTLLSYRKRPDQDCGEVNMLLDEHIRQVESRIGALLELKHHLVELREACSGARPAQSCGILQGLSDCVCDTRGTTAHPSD

Variants of: B1
Experiment: sfGFP reporter fluorescence (15 h) (µM FITC); higher = higher leak
Settings: library round: Round 1; ligand: none
Please give only the number in your answer, with no unit.

A selection of reference data follows.
MNIQIGELAKRTACPVVTIRFYEQEGLLPPPGRSRGNFRLYGEEHVERLQFIRHCRSLDLPLSKVRTLLSYRKRPDQDCGEVNMLLDEHIRQVESRIGALLELVHHLVELREACSGARPAQSCGILQGLSCCVCDTRGTTAHPSD
0.504
MNIQIGELAKRTACPVVTIRFYEQEGLLPPPGRSRGNFRLYGEEHVERLQFIRHCRSLDMTLSDVRTLLSYRKRPDQDCGEVNMLLDEHIRQVESRNGALLELVHHLVELREACSGARPAQSCGILQGLSDCVCDTRGTTAHPSD
0.0652
MNIQIGELAKRTACPVVTIRFYEQEGLLPPPGRSRGNFRLYGEEHVERLQFIRHCRSLDMPLSDVRTLLSYRKRPDQDCGEVTMLLDEHIRQVESRIGALLELKHHLVELRAACSGARPAQSCGILQGLSDCVCDTRGTTAHPSD
0.0608

Entry MNIQIGELAKRTACPVVTIRFYEQEGLLPPPGRSRGNFRLYGEEHVERLQFIRHCRSLDMPLSKVRTLLSYRKRPDQDCGEVNMLLDEHIRQVESRIGALLELKHHLVELDEACSGARPAQSCGILQGLSDCVCDTRGTTAHPSD needs its sfGFP reporter fluorescence filled in; supply it. 0.0666

Entry MNIQIGELAKRTACPVVTIRFYEQEGLLPPPGRSRGNFRLYGEEHVERLQFIRHCRSLDMPLSDVRTLLSYRKRPDQDCGEVNMLLDEHIRQVESRIGALLELKHHLVELREACSGARPAQSCGILQGLSMCVCATRGTTAHPSD needs its sfGFP reporter fluorescence filled in; supply it. 0.0704

Entry MNIQIGELAKRTACPVVTIRFYEQEGLLPPPGRSRGNFRLYGEEHVERLQFIRHCRSLDMPLSDVRTLLSYRKRPDQDCGEVTMLLDEHIRQVESRIGALLELKHHLVELREACSGARPAQSCGILQGLSDCVVDTRGTTAHPSD needs its sfGFP reporter fluorescence filled in; supply it. 0.0588

Entry MNIQIGELAKRTACPVVTIRFYEQEGLLPPPGRSRGNFRLYGEEHVERLQFIRHCRSLDMPLSDVRTLLSYRKRPDQDCGEVNMLLDEHIRQVESRIGALLELKHHLVELREACSGARPAQSCGILQGLSACVCPTRGTTAHPSD needs its sfGFP reporter fluorescence filled in; supply it. 0.0689

Entry MNIQIGELAKRTACPVVTIRFYEQEGLLPPPGRSRGNFRLYGEEHVERLQFIRHCRSLDMPLSDVRTLLSYRKRPDQDCGEVTMLLDEHIRQVESRGGALLELKHHLVELREACSGARPAQSCGILQGLSDCVCDTRGTTAHPSD needs its sfGFP reporter fluorescence filled in; supply it. 0.0636

Entry MNIQIGELAKRTACPVVTIRFYEQEGLLPPPGRSRGNFRLYGEEHVERLQFIRHCRSLDMPLSKVRTLLSYRKRPDQDCGEVSMLLDEHNRQVESRIGALLELKHHLVELREACSGARPAQSCGILQGLSDCVCDTRGTTAHPSD needs its sfGFP reporter fluorescence filled in; supply it. 0.0679

Entry MNIQIGELAKRTACPVVTIRFYEQEGLLPPPGRSRGNFRLYGEEHFERLQFIRHCRSLDMPLSDVRTLLSYRKRPDQDCGEVNMLLDEHIRQVESRIGALLELVHHLVELREACSGARPAQSCGILQGLSDCVCDTRGTTAHPSD needs its sfGFP reporter fluorescence filled in; supply it. 0.0666

Entry MNIQIGELAKRTACPVVTIRFYEQEGLLPPPGRSRGNFRLYGEEHVERLQFIRHCRSLDMPLSDVRTLLSYRKRPDQDCGEVNMLLDEHIRQVESRIGALLELKHHLVILLEACSGARPAQSCGILQGLSDCVCDTRGTTAHPSD needs its sfGFP reporter fluorescence filled in; supply it. 0.0627

Entry MNIQIGELAKRTACPVVTIRFYEQEGLLPPPGRSRGNFRLYGEEHVERLQFIRHCRSLDMPLSDVRTLLSYRKRPDQDCGEVTMLLDEHIRQVESRIGALLELVHHIVELREACSGARPAQSCGILQGLSDCVCDTRGTTAHPSD needs its sfGFP reporter fluorescence filled in; supply it. 0.0623

Entry MNIQIGELAKRTACPVVTIRFYEQEGLLPPPGRSRGNFRLYGEEHVERLQFIRHCRSLDMPLSDVRTLLSYRKRPDQDCGEVNMLLDEHIRQVESRIGALLELVHHLKELREACSGARPAQSCGILQGLSDCVCDTRGTTAHPSD needs its sfGFP reporter fluorescence filled in; supply it. 0.109

Entry MNIQIGELAKRTACPVVTIRFYEQEGLLPPPGRSRGNFRLYGEEHVERLQFIRHCRSLDMPLSDVRTLLSYRKRPDQDCGEVWMLLDEHIRQVESRIGALLELKHHLVELREACSGARPAQSCGILQGLSDCVCDTRGTTAHASD needs its sfGFP reporter fluorescence filled in; supply it. 0.0616

Entry MNIQIGELAKRTACPVVTIRFYEQEGLLPPPGRSRGNFRLYGEEHVERLQFIRHCRSLDMPLSTVRTLLSYRKRPDQDCGEVNMLLDEHIRQVESRIGALLELKHHLVELREACSGARPAQSCGILQGLSDCVCRTRGTTAHPSD needs its sfGFP reporter fluorescence filled in; supply it. 0.137

Entry MNIQIGELAKRTACPVVTIRFYEQEGLLPPPGRSRGNFRLYGEEHVERLQFIRHCRSLDMPLSDVRTLLSYRKRPDQDCGEVTMLLDEHIRQVESRIGALLELKHHCVELREACSGARPAQSCGILQGLSDCVCDTRGTTAHPSD needs its sfGFP reporter fluorescence filled in; supply it. 0.1
